assay.overview: Fluorescence assay for glutathione: Kd from absorption/fluorescence change on glutathione addition
Assay type: binding
assay.context: Table 1; dissociation constant for glutathione, calculated from changes in the fluorescence spectrum; pH 7.4; read-out: Kd
pKd: −log10 of the molar value.
endpoint: pKd

[
  {
    "structure.smiles": "CN(C)c1ccc2c(c1)[Si](C)(C)C1=CC(=[N+](C)C)C=CC1=C2c1ccccc1C#N",
    "value.observed": 2.92
  },
  {
    "structure.smiles": "CN(C)c1ccc2c(c1)[Si](C)(C)C1=CC(=[N+](C)C)C=CC1=C2c1ccccc1O",
    "value.observed": 1.37
  },
  {
    "structure.smiles": "COc1ccccc1C1=c2cc3c(cc2[Si](C)(C)c2cc4c(cc21)OCCN4C)=[N+](C)CCO3",
    "value.observed": 3.15
  }
]
